Tested on: MS2 coat protein
ASSAY COMMENT: apparent Kd, MS2 coat protein; higher = weaker binding; RNA-MaP array; FMN 200 µM where present
DETAILS: ligand present: flavin mononucleotide; designed as: ON switch for flavin mononucleotide
This section presents sequences with their documented apparent Kd values.
# output: bare number, implied unit nM

Please review the entries below; each comes with its answer.
> print(dat)
                               sequence.code     system.tested  measurement.label  data.value
 1  CUCACGUUAGUAGGAUAUCCGACAUGAGGAUCACCCAUGUCACUACGCCGAUAGGGAAGGUGUAAGGAGAAGGGCUGAUAAAUA  MS2 coat protein        apparent Kd        92.9
 2  GACAUGAGGAUCACCCAUGUCCAUGCAAGAGUAGUUGAGACCAGAAGGACCGUGCGGAAUGCAGGGUAGGAUAUGGAGCCCUCA  MS2 coat protein        apparent Kd        9.38
 3  GCCAUCGCAUGAGGAUAUGGCACCGUUUCGGUGCCAGAAGGCAUGUCAUAAGACAUGAGGAUCACCCAUGUGAAUAAGAUGGCA  MS2 coat protein        apparent Kd        38.5
 4  ACAUGAGGAUCACCCAUGUUCACAUAGGAUAUUGAUUAUAUUGGUUUAAGAAUAGUAAUUAACCUCAAGAAGGAUGCCUGAUCU  MS2 coat protein        apparent Kd          12
 5  CGAGUACAUGAGGAUCACCCAUGUUAUGAAUUGUCAGGAUAUGGGUAUUGGUGACAUGCGCCAGAAGGGACGUCUG  MS2 coat protein        apparent Kd         124
 6  GGGCGACAUGAGGAUCACCCAUGUAACCUAAACGAAGGAUAUGGGCCUGAACGUCCAGGACCAGAAGGUCGGAAAU  MS2 coat protein        apparent Kd        17.9
 7  GUGGCCCAGGCACAGGAUAUGUUUCUCGUAACAUGAGGAUCACCCAUGUGCCUAUGAGAUUUUUUGCAGAAGGGUGCACGCCACG  MS2 coat protein        apparent Kd        18.1
 8  ACAGACCAACAGAAGGGUGAGGUGUUGUUCUUCACAGGAUAUGUUGGCAACAUGAGGAUCACCCAUGUUGGUUUUGAAGUACGU  MS2 coat protein        apparent Kd        4.68
 9  AGUGUCAUCGAGAAGGCCUCAACAUGAGGAUCACCCAUGUUGCAAAAUGGGAGGAUAUCGCAAAAACAGCUACGUUUCGUAGCA  MS2 coat protein        apparent Kd        7.43
10  GUGAGUGAUAGAGGAUAUAUAGAGAGAGAGAGAAUAGAAGGCUAAACAUACAUGAACAUGAGGAUCACCCAUGUCACCCAUGUU  MS2 coat protein        apparent Kd        42.2

Request: For MS2 coat protein, provide apparent Kd of ACGCAGCUGGGUAAGGAUAUCGGUGGUAAAACAUGAGGAUCACCCAUGUCCGAAGCUCGGACCUCCGAGAAGGUGCCCGGCUGCG please.
Result: 8.14

Request: Continue with AACUGAGCCCAAGGAUAUCCUCACUUCCACUACAUGAGGAUCACCCAUGUCAGAUCGUCUGUGUAGGAGAAGGUGGUGUACAUG
Result: 623

Request: // repeat for AAUAAACUCACAGGAUAUAGCAUAGGUCGCGUGAACUUACAGACGACUAUGCUAGAAGGGUGACCACAUGAGGAUCACCCAUGU and report
Result: 186

Request: Likewise for UUAACAUGAGGAUCACCCAUGUCGUGCAAGAUGAGUUCUGGUGAGGAUAUACAUGGUAAAGAACUGUAGAAGGCACUGGGUACA ?
Result: 139

* * *

# Lookup of reported apparent Kd keyed by entry
Tested on: MS2 coat protein
ASSAY COMMENT: apparent Kd, MS2 coat protein; higher = weaker binding; RNA-MaP array; FMN 200 µM where present
DETAILS: designed as: OFF switch for flavin mononucleotide; no ligand
# unit: nM | format: bare number

> print(dat)
                              sequence.code  data.value
1  CUGCGCUAGGAGAAGGGCUAGAGUGUGAUAUAUUUGCCCGCGAGCACAUGAGGAUCACCCAUGUAGCAGGAUAUCCAAGCCGGU        6.86
2  UUCCUCAUAACAUGAGGAUCACCCAUGUAUUAAUAGAUAACUGAGGAUAUACUAAUAAUGUUUAUGUAGAAGGCAGAUACAGAU        49.6
3  CUAGCAACAUGAGGAUCACCCAUGUAGGAUAUCGCUAUUGUAAUCAUGAAACAUGAUUACAAUAGCGAGAAGGACAUAUGCUAU        8.33

Request: Consider the sequence AAGAAGUCAGGAUAUGCAUGGCGGGACUUGCGUCGUGGCGUGCAGAAGGGACAUGAGGAUCACCCAUGUGGAGC and give its measured apparent Kd.
Result: 107

Request: And for CCCAUGUCAGGAUAUCUAAGAGAGGGCCAGCCCUCUCCUCCGGAGAAGGGACAUGAGGAUCACCCAUGUAAAAC ?
Result: 129

Request: What do you get for ACAUUCACUCGACUGGUUCUUAACAUGAGGAUCACCCAUGUAGAGGAUAUAGGAAUUCUGGGUUCCUAGAAGGCUACGUGAGUG ?
Result: 15.9

Request: Next: CGUAUGUAAGGAUAUAGCCACAUUACGAAUAAGUAGUGUGGCUAGAAGGUACAUGAGGAUCACCCAUGUAUGGG
Result: 153

Request: Now give it for GUCAGCUCGUGAGGAUAUACAUGUGCUGGAGACAGCAUUAAAUUUUUCACAUGAGGAUCACCCAUGUAGAAGGCACGAGCUGAU too.
Result: 18.4

Request: Cool, now AAGUAGGGAGGAUAUACAUAGAUACAGAUUCAUGUAGAACUACAUGAGGAUCACCCAUGUAGAAGGCCCUAAUA
Result: 31.6

Request: Please answer likewise for CAUAGGCGAGGAUAUACAUGAGGAUCACCCAUGUAAGGAAACCUGGCAGACUCAGAAUGUAGAAGGCGCACUGA
Result: 21.6

Request: Continue with AAGAAGACAGGAUAUACAUGAAAGAAAGAAAAGAAAAGAAAACAUGAGGAUCACCCAUGUAGAAGGGUCAAGAA
Result: 46.5

Request: Likewise for UUUUUGAAGCUUCGUCAAUACAGUUAGGAUAUGAGAGACAUGAGGAUCACCCAUGUGCAUGUUGAUUAGAAGGAACAACUAUCU ?
Result: 14.2

Request: Entry UACGUACAGAAGAACUCCGGGUCCAGAAGGGACAUGAGGAUCACCCAUGUACCGUUGAUUGCUUGUCAGGAUAUGGACCCGGCC please
Result: 6.67

Request: Continue with UGUUGGAGCAGAGGAUAUACAUGAGGAUCACCCAUGUAAUAAAGUGAAGCCUGGAAACAGGCAAUGUAGAAGGCUGCUCCGACA
Result: 10.1

Request: Now consider AGAAACUACGAGAAGGACAUGUGGUCCUUCGAAAACAUGAGGAUCACCCAUGUAGGAUAUCGUAGUUUCAGGAUCGUGAGAUCA .
Result: 18.2

* * *

System: MS2 coat protein
ASSAY COMMENT: apparent Kd, MS2 coat protein; higher = weaker binding; RNA-MaP array
DETAILS: designed as: OFF switch for flavin mononucleotide; no ligand
MEASUREMENT LABEL: apparent Kd (nM)
Give the number; nM is assumed, so skip it.

Example results:
> print(dat)
                              sequence.code     system.tested  measurement.label  data.value
1  AAUAGUUCUGGAGGAUAUUGUACAUGAGGAUCACCCAUGUUAUCUACUGCUAUGGUUGACCUGCGCAAGAAGGCCACGUUCCUG  MS2 coat protein        apparent Kd        12.6
2  ACUAGACAUGAGGAUCACCCAUGUGAGGAUAUCUUGCUAUGCACUAUGGGCCAACGGAAGAGAAGGCACUGGGA  MS2 coat protein        apparent Kd        45.7
3  AUCAGUCUAGAAGGAUAUCAGCCCGAAGCCGAGUGAGAAGGUCUAGACAUGAGGAUCACCCAUGUCACAGCAACUAUCAAGAAC  MS2 coat protein        apparent Kd        9.74

Switching to the query record.
Request: Request - read-out apparent Kd | tested on MS2 coat protein | sequence GCGGGUUACCCAGAAUGAGAAACAUGAGGAUCACCCAUGUAGAAGGAUAUAGAGUCUUGGUCUGCCUAGAAGGUCUAUAAUUGA
Result: 20.5

* * *

Parameter apparent Kd: see the listing below.
Tested on: MS2 coat protein
ASSAY COMMENT: apparent Kd, MS2 coat protein; higher = weaker binding; RNA-MaP array; FMN 200 µM where present
DETAILS: designed as: OFF switch for flavin mononucleotide; no ligand
Please reply with the bare figure in nM and do not write the unit itself.

Some entries whose results are on file:
> print(dat)
                               sequence.code  data.value
 1  UAAGACUAGCAUUGGUAUCUCCACAUGAGGAUCACCCAUGUCUAGGAUAUGAGCAGCAAAGCUGCUUAGAAGGAGACGCUAGUC        8.47
 2  UGCAUGUCAGGAUAUCGUGCAUACAACGAAAGUUCUAUGUGCGAGAAGGGACAUGAGGAUCACCCAUGUCUUCG          24
 3  GAUACACAUGAGGAUCACCCAUGUGAGGAUAUGCGUACGUUGUCCGUAGGCGACGUGCGCAGAAGGCGCAAGGU        83.2
 4  GUGUACGUAGGAUAUGCUGGAAUCUAGCGAAGCUAGGUUCCACAUGAGGAUCACCCAUGUAGAAGGGCGUACAC         182
 5  GGAAAUCAUGUAGGAUAUGCAUGGCGAAGCUACGCAGAAGGACAUGAGGAUCACCCAUGUUAUAGCUACCCAGUUCGGUGGCAA         133
 6  AAGCAGUGUAAAUAAACUCAAAUACAUGAGGAUCACCCAUGUAAGGAUAUGCAGUGGAAUACACUGCAGAAGGUACAUCACUGC        15.1
 7  AUCAGCUUGACAGGAUAUGCAUGUCAACGAAAGUUGACAAUCUUAAUAACAUGAGGAUCACCCAUGUAGAAGGGUCGAGCUGAU        17.4
 8  AUACAUGAGGAUCACCCAUGUUACUGGGUCUAUAUAGAACGUAGAAGGAUGAUAUUAUAAAUAUCAUAGGAUAUACUAUAUUGU        32.7
 9  UGAUAACAUGUAGGAUAUCCAGCAUUGACCAUCGGAGAAGGACAUGAGGAUCACCCAUGUACCGAUACAAUGGGAUAUGGGAAU        20.1
10  CUAUGCCGAAUAGGAUAUUCGAUCAAAAGGAUAGAAGAAGGGUUACAUGAGGAUCACCCAUGUAUGCACAUGAGGAUCCCUUAG         279

Request: Please look up its apparent Kd: CCCUCACAUGAGGAUCACCCAUGUUAGGAUAUCUACCUGGAGCUUUGAUUAGCCCAACGGAGAAGGAACGUGCA
Result: 19

Request: // repeat for UGUCGGAGCAGAGGAUAUUACAUGAGGAUCACCCAUGUAUGAACCAAUAGCCGGAAACAGCAAUGUAAGAAGGCUGCUCCGACA and report
Result: 4.64

Request: Try this sequence too: CCUUGUAUUGAGGAUAUGCGCCGGCUCGCUGGCGCAGAAGGCGGCACAUGAGGAUCACCCAUGUCAGUUCGCGA
Result: 9.34

Request: Next sequence up: AUUAUGACCGAGUAAAGCUUCAAAACAUGAGGAUCACCCAUGUAGGAUAUCAGCACGAUAAGUGCUGAGAAGGACAUCUCGGUC
Result: 14.3

Request: AAGAAGUGAGGAUAUCGAAGACAGACGAAAAGUCUGUCAAACGAGAAGGCACAUGAGGAUCACCCAUGUAAGAA
Result: 25.9

Request: Let us now turn to GCCGAUUAAGUGAGGAUAUACCUAUGGAUACAUAGGUAGAAGGCACAUGAGGAUCACCCAUGUUCCUUAACGGC
Result: 11.2

Request: Param item: UGCGCUGAGGGAGGAUAUGACAUGAGGAUCACCCAUGUGGUAGGUUUCUUGUCAGAAGGCCCGCAUGUACCGAAUUAGGUUCGU
Result: 112

Request: Same thing, different sequence: AUCAGCUCGUCAGGAUAUACGUCACUGCGUCAGCAGUGUGGUCAGAUCACAUGAGGAUCACCCAUGUAGAAGGGACGAGCUGAU
Result: 28.6

Request: Another: CCACUGUCAGGAUAUCGUGCAUAAGCGUUUACAUUUAUGUGCGAGAAGGGACAUGAGGAUCACCCAUGUAAACG
Result: 417

Request: Another: GCCUCAUAGUAGAAGGGACUUAGGCAGUUAAGCAUCAUCUCCAUUUCACAUGAGGAUCACCCAUGUCAGGAUAUACUAAGAGGC
Result: 9.39

Request: Item: AAGCUGUGAGGAUAUACAUGAGGAUCACCCAUGUUAAGGAAGUCUUGGUUAAUUUGGAGUAGAAGGCGCUUAUU
Result: 30.9
